- assay-comment: NCI Yeast Anticancer Drug Screen. Data for the wt1 strain (AID 149)
- experimental-conditions: S. cerevisiae wt1 strain (SPY 50644) growth inhibition; at 100.0 µM
Compounds without any hit were thinned out: in the full panel of roughly 79,000, 15% have a hit. Activity calls are given as the source filed them. No stated cut-off is given here; in the data, active means growth inhibition above about 70%; inactive means the rest.
Tick one outcome: yes (active), no (inactive)

Task item: Each compound tested received a call. Report the one for `O=C(Nn1c(-c2ccccc2)nc2ccccc2c1=O)c1ccc(Cl)cc1` .
Reply: yes

Task item: Moving on to `Nc1c([N+](=O)[O-])cc2c3c(cccc13)CC2`
Reply: no

Task item: Now the compound CCOC(=O)C(NC(=O)c1ccccc1)[CH](c1ccccc1)[Sn]([c]1ccccc1)([c]1ccccc1)[c]1ccccc1 (centres undefined)
Reply: yes

Task item: What would you report for `c1cc2ccc3cc4ncccc4c4ccc(c1)c2c34` ?
Reply: yes

Task item: Also check `O=Cn1c2ccccc2c2ccccc21`
Reply: no

Task item: What do you have for `CCCCCCCCCC/C=C\CC(=O)O` ?
Reply: yes

Task item: Next up: c1ccc(N/N=C2\CC(c3ccccc3)Oc3ccccc32)cc1 (centres undefined)
Reply: no

Task item: Try `COc1ccc2c(C)cc(N/N=C/c3sccc3C)nc2c1` next.
Reply: no

Task item: Another compound to look at: S=C1NC2=C(CSC/C2=C\c2ccc(Cl)cc2)C(c2ccc(Cl)cc2)N1 (centres undefined)
Reply: yes

Task item: Next compound: `CCCC#CCOC(=O)c1cc([N+](=O)[O-])cc([N+](=O)[O-])c1`
Reply: yes

Task item: Next up: `CN(C)CCNC(=O)c1cccc2nc3c4ccccc4c4ccccc4c3nc12`
Reply: yes

Task item: Item: `O=c1[nH]c(=O)n(CCCO)cc1F`
Reply: no

Task item: Try the compound CC1(C)CC(=O)C(C(CC(c2ccccc2)c2cc3c(cc2O)OCO3)C2=C(O)CC(C)(C)CC2=O)=C(O)C1 (centres undefined)
Reply: yes

Task item: Now consider O=C1c2ccccc2-c2ccc(NC(=O)C3CCCCC3C(=O)O)cc21 (centres undefined) .
Reply: no

Task item: Same read-out for `CC(=O)CC[N+](C)(C)C` ?
Reply: no

Task item: And then `CCOC(=O)c1sc2[n+](c1C)C(=O)/C(=C/c1cc(OC)c(OC)c(OC)c1)S2` , what is it?
Reply: yes

Task item: # repeat for `C[n+]1c(-c2ccc(NC(=O)c3ccc(C(=O)Nc4ccc(-c5cn6ccccc6[n+]5C)cc4)cc3)cc2)cn2ccccc21`
Reply: yes

Task item: Ok, now `CCOc1nc(OCC)nc(-c2cccn2-c2ccccc2)n1`
Reply: yes

Task item: And what about the compound `O=c1oc(C(C(F)(F)F)C(F)(F)F)nc2ccccc12` ?
Reply: no

Task item: Another compound: `CC1=Cc2ccc(C)cc2C(=O)C1=O`
Reply: yes

Task item: Moving on to [N-]=[N+]=NC1CC(n2ccc(=O)[nH]c2=O)OC1COC(c1ccccc1)(c1ccccc1)c1ccccc1 (centres undefined)
Reply: yes

Task item: Would you mind doing CC(C)c1ccc(C2NC(=S)NC3=C2c2ccccc2C3=O)cc1 (centres undefined) as well?
Reply: no

Task item: Repeat with `COc1cc(C(C)(C)C)cc(OC)c1C(O)(c1c(OC)cc(C(C)(C)C)cc1OC)c1c(OC)cc(C(C)(C)C)cc1OC`
Reply: yes

Task item: Ok, now `CC[C@@]1(OC(=O)CN(C)C)C(=O)OCc2c1cc1n(c2=O)Cc2cc3ccccc3nc2-1`
Reply: yes

Task item: Same thing, different compound: COc1cc(C(C)C(C(=O)O)C(=O)C(=O)O)cc(OC)c1OC (centres undefined)
Reply: no

Task item: Would you kindly repeat that for `CCCCCC(=O)C(C)(c1nc2n(c1O)/C(=N/C(=O)Nc1ccc(Cl)cc1)N=N2)c1nc2n(c1O)/C(=N/C(=O)Nc1ccc(Cl)cc1)N=N2` ?
Reply: no

Task item: How about this compound: `CN(C)c1ccc(C(c2ccc(Cl)cc2)c2ccc(N(C)C)cc2)cc1`
Reply: yes

Task item: Also check O=S(=O)(CCC[C@H]1[C@@H](CCOCc2ccccc2)C2CCCN1O2)c1ccccc1 (some centres undefined)
Reply: no

Task item: Try this compound too: c1ccc2cc(OCC3CO3)c(OCC3CO3)cc2c1 (centres undefined)
Reply: no

Task item: Another: `CNc1ccc2[nH]c3ccccc3c2c1`
Reply: no

Task item: Consider next the compound `COc1ccc2nc3cccc([N+](=O)[O-])c3c(NCCCO)c2c1` in the same way.
Reply: yes

Task item: Quick one: `Cc1ccc2c(/C=C/c3ccc(N(C)C)cc3)ccnc2c1C`
Reply: no

Task item: Now consider `c1cncc(C(Nc2cccc3cccnc23)Nc2cccc3cccnc23)c1` .
Reply: no

Task item: Another: `Nc1cccc2cc(Cl)cnc12`
Reply: no

Source listed as PubChem BioAssay (NCI).
